Exercise: state measured IC50 cAMP for each of the molecules provided.
# target-or-system: glucagon receptor (GCGR) overexpressed CHO-K1 cells or human primary hepatocytes (Homo sapiens, UniProt P47871)
# Construct: expressed in transfected cells; host or cells: GCGR overexpressed CHO-K1 cells or human primary hepatocytes (endogenous receptor)
# Sequence (P47871 26-477): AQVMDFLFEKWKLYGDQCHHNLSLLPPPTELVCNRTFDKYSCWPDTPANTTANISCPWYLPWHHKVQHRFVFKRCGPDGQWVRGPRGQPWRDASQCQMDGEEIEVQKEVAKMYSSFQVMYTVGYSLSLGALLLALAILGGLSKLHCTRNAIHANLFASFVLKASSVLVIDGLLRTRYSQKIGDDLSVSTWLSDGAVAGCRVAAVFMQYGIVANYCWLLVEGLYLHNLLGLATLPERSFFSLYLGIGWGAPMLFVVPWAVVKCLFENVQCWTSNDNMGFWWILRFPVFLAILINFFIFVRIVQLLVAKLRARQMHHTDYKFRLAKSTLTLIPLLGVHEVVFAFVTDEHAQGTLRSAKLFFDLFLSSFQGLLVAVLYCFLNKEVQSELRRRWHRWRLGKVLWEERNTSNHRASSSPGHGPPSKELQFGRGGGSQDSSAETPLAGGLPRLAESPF
# test: Glucagon cAMP inhibition assay (Cisbio cAMP Dynamic 2 HTRF)
# Type: cell-based

Requested read-out: IC50 cAMP. Entry: CCCOC[C@H](Cc1ccc(-c2ccc(C(C)(C)C)cc2)cc1)Nc1ccc(C(=O)NCCC(=O)O)cc1
1788 nM

Tell me the measured IC50 cAMP of CC[C@H](C)[C@@H](COc1nnc(-c2ccc(C(F)(F)F)cc2F)o1)Nc1ccc(C(=O)NCCC(=O)O)cc1 , please.
>30000 nM

Recorded IC50 cAMP for CCOC(=O)CCNC(=O)c1ccc(N[C@H](C(=O)Nc2ccc(-c3cc4ccccc4o3)cc2)C(C)C)cc1 , please?
92.8 nM

Query: IC50 cAMP; subject: CCOC(=O)CCNC(=O)c1ccc(N[C@H](COc2ccc(-c3nc4ccccc4s3)cn2)C(C)C)cc1
1973 nM

For the molecule shown here, O=C(O)CCNC(=O)c1ccc(N[C@H](Cc2ccc(-c3cc4ccccc4o3)cc2)C(=O)Nc2cc(F)cc(F)c2)cc1 , give the reported IC50 cAMP.
214 nM

Using the record for CCOC(=O)CCNC(=O)c1ccc(N[C@@H](Cc2c[nH]c3ccccc23)C(=O)Nc2ccc(-c3cc4ccccc4o3)cc2)cc1 , report its IC50 cAMP.
34600 nM

Field request: IC50 cAMP | item: CC(C)[C@@H](COc1nnc(-c2ccc(C(F)(F)F)cc2)o1)Nc1ccc(C(=O)NCCC(=O)O)cc1
>30000 nM

Any idea what IC50 cAMP was measured for CC[C@H](C)[C@@H](COc1nnc(-c2ccc(Cl)cc2Cl)o1)Nc1ccc(C(=O)NCCC(=O)O)cc1 ?
>30000 nM

// returns reported IC50 cAMP for input CCCC[C@@H](COc1ccc(-c2ccc(C(F)(F)F)cc2Cl)cn1)Nc1ccc(C(=O)NCCC(=O)O)cc1
245 nM

----------
# target-or-system: glucagon receptor (GCGR) (Homo sapiens, UniProt P47871)
# Construct: expressed in transfected cells; host or cells: CHO-K1 cells overexpressing GCGR (membrane fractions)
# Sequence (P47871 26-477): as above
# test: I125-glucagon binding assay (competition, GCGR membrane fractions)
We'd kindly ask you to apply these IC50 classes: small value = under 300 nM, mid value = from 300 nM up to 800 nM, large value = 800 nM and over

In plain terms, what class is CC[C@H](C)[C@@H](COc1nnc(-c2cc3ccccc3o2)o1)Nc1ccc(C(=O)NCCC(=O)O)cc1 ?
large value

# bin label for CCOC(=O)CCNC(=O)c1ccc(N[C@H](Cc2ccc(-c3ccc(C(C)(C)C)cc3)cc2)C(=O)Nc2ccc(C(F)(F)F)cc2)cc1
mid value

Which class holds CC(C)[C@@H](COc1ccc(-c2ccc(C(F)(F)F)cc2Cl)cn1)Nc1ccc(C(=O)NCCC(=O)O)cc1 ?
mid value

Could you tell me which band O=C(O)CCNC(=O)c1ccc(N[C@H](COc2ccc(-c3cc4ccccc4o3)cn2)c2ccc(-c3ccc(C(F)(F)F)cc3)cc2)cc1 belongs to?
small value

# classify by IC50 band: CC(C)COC[C@H](Cc1ccc(-c2cccc(OC(F)(F)F)c2)cc1)Nc1ccc(C(=O)NCCC(=O)O)cc1
mid value

Please indicate the class for CC(C)(C)c1ccc(NC(=O)[C@H](Cc2cccc3ccccc23)Nc2ccc(C(=O)NCCC(=O)O)cc2)cc1 based on its IC50.
large value

For the record O=C(O)CCNC(=O)c1ccc(N[C@H](COc2ccc(C(F)(F)F)cn2)c2ccc(-c3ccc(C(F)(F)F)cc3)cc2)cc1 , report the class its IC50 corresponds to.
small value

Band of CC[C@H](C)[C@@H](COc1nnc(-c2ccc(C(F)(F)F)cc2)o1)Nc1ccc(C(=O)NCCC(=O)O)cc1 ?
large value

Where would CC(C)[C@@H](COc1ccc(-c2ccc(C(F)(F)F)cc2)cn1)Nc1ccc(C(=O)NCCC(=O)O)cc1 land among the classes by reported IC50?
mid value

Quick check: band for O=C(O)CCNC(=O)c1ccc(NC(Cc2ccccc2)C(=O)Nc2ccc(C(F)(F)F)cc2)cc1 (stereo in doubt)
large value

Pick a category. Item: C[C@@H](Cc1ccc(-c2ccc(C(F)(F)F)cc2)cc1)Nc1ccc(C(=O)NCCC(=O)O)cc1
large value

Using the reported IC50, which band applies to CC(C)COC[C@H](Cc1ccc(-c2ccc(C(F)(F)F)cc2)cc1)Nc1ccc(C(=O)NCCC(=O)O)cc1 ?
mid value

Which IC50 category applies to CCCC[C@H](Cc1ccc(-c2ccc(C(F)(F)F)cc2)cc1)Nc1ccc(C(=O)NCCC(=O)O)cc1 here?
small value

----------
# target-or-system: glucagon receptor (GCGR) overexpressed CHO-K1 cells or human primary hepatocytes (Homo sapiens, UniProt P47871)
# Construct: expressed in transfected cells; host or cells: GCGR overexpressed CHO-K1 cells or human primary hepatocytes (endogenous receptor)
# test: Glucagon cAMP inhibition assay (Cisbio cAMP Dynamic 2 HTRF)
# Format: cell-based
# measurement-context: inhibition of glucagon (EC50 concentration) induced cAMP production
Hi there, I'd appreciate the recorded IC50 cAMP for every entry that follows.
I only need the number, in µM, no unit after it.

I have this molecule here, COc1cc(OC[C@@H](Nc2ccc(C(=O)NCCC(=O)O)cn2)C(C)C)ccc1-c1cc2ccccc2o1 , and I need its recorded IC50 cAMP.
1.232

Form field: reported IC50 cAMP of CCCC[C@@H](COc1ccc(-c2ccc(C(F)(F)F)cc2Cl)c(Cl)c1)Nc1ccc(C(=O)NCc2nnn[nH]2)cc1
0.5281

Need IC50 cAMP, item CC[C@H](C)[C@@H](COc1cc(C)c(-c2ccc(C(C)(C)C)cc2)c(C)c1)Nc1ccc(C(=O)NCCC(=O)O)cc1
0.448

Name the recorded IC50 cAMP for Cc1cc(OC[C@@H](Nc2ccc(C(=O)NCCC(=O)O)cc2)C(C)C)cc(C)c1-c1ccc(C(C)(C)C)cc1 .
0.352

Query (molecule): CC(C)C[C@@H](COc1ccc(-c2ccc(C(F)(F)F)cc2)nc1)Nc1ccc(C(=O)NCCC(=O)O)cc1 ; field requested: IC50 cAMP
0.847

# query: IC50 cAMP of entry CC(C)[C@@H](COc1ccc(-c2ccc(C(F)(F)F)cc2F)c(F)c1)Nc1ccc(C(=O)NCCS(=O)(=O)O)cc1
12.144

Looking for the measured IC50 cAMP of CCCC[C@@H](COc1ccc(-c2ccc(C(F)(F)F)cc2)c(Cl)c1)Nc1ccc(C(=O)NCc2nnn[nH]2)cc1 , can you help?
0.105

----------
# target-or-system: glucagon receptor (GCGR) (Homo sapiens, UniProt P47871)
# Construct: expressed in transfected cells; host or cells: CHO-K1 cells overexpressing GCGR (membrane fractions)
# test: I125-glucagon binding assay (competition, GCGR membrane fractions)
# measurement-context: competition with I125-glucagon 0.0625 nM, membrane fractions of GCGR overexpressed CHO-K1 cells
For each entry below, report its log10(IC50) value.
// stored as log10 of IC50 expressed in nM

Give the measured log10(IC50) of CC(C)[C@@H](COc1ccc(-c2ccc(C(F)(F)F)cc2Cl)cc1)Nc1ccc(C(=O)NCCC(=O)O)cc1 .
1.85

Which log10(IC50) value is on record for CC[C@H](C)[C@@H](COc1ccc(-c2cc3ccccc3o2)c(OC)c1)Nc1ccc(C(=O)NCCC(=O)O)cc1 ?
1.66

# log10(IC50) lookup, item CC(C)[C@@H](COc1ccc(-c2ccc(C(F)(F)F)cc2Cl)nc1)Nc1ccc(C(=O)NCCC(=O)O)cn1
3.24

Would you kindly share the measured log10(IC50) for CC(C)[C@@H](COc1cc(Cl)c(-c2cc3ccccc3o2)cc1Cl)Nc1ccc(C(=O)NCCC(=O)O)cc1 ?
1.76

Form field: reported log10(IC50) of CCCC[C@@H](COc1ccc(-c2ccc(C(F)(F)F)cc2)nc1)Nc1ccc(C(=O)NCCC(=O)O)cc1
2.10

Report log10(IC50) for CC(C)C[C@@H](COc1cnn(-c2ccc(F)cc2F)c1)Nc1ccc(C(=O)NCCC(=O)O)cc1 please.
3.56

Need log10(IC50) of Cc1cc(OC[C@@H](Nc2ccc(C(=O)NCCC(=O)O)cc2)C(C)C)cc(C)c1-c1ccc(C(F)(F)F)cc1Cl , thanks.
2.94

Sample CC(C)[C@@H](COc1ccc(-c2ccc(C(F)(F)F)cc2Cl)c(F)c1)Nc1ccc(C(=O)NCCC(=O)O)cc1 — what was its log10(IC50)?
1.88

Would you kindly share the measured log10(IC50) for CC(C)[C@@H](COc1cc(F)c(-c2ccc(C(F)(F)F)cc2Cl)c(F)c1)Nc1ccc(C(=O)NCCC(=O)O)cc1 ?
2.25

// lookup log10(IC50) for CCCC[C@@H](COc1cc(C)c(-c2cc3ccccc3o2)c(C)c1)Nc1ccc(C(=O)NCCC(=O)O)cc1
2.03

// returns reported log10(IC50) for input CC(C)C[C@@H](COc1ccc(-c2ccc(Cl)cc2Cl)nc1)Nc1ccc(C(=O)NCCC(=O)O)cc1
2.48

Name the reported log10(IC50) value associated with the compound CCC(C)[C@@H](Cc1noc(-c2ccc(C(C)(C)C)cc2)n1)Nc1ccc(C(=O)NCCC(=O)O)cc1 (stereo partly drawn)
2.80

Which measured log10(IC50) value corresponds to CCC(C)[C@@H](COc1ccc(-c2ccc(C(F)(F)F)cc2)cc1)Nc1ccc(C(=O)NCCC(=O)O)cc1 (stereo partly drawn) ?
2.33

What value of log10(IC50) has been reported for the following compound? CC(C)(C)[C@@H](COc1ccc(-c2ccc(C(F)(F)F)cc2Cl)cc1)Nc1ccc(C(=O)NCCC(=O)O)cc1
2.37

# get_value(readout='log10(IC50)', item= CC[C@H](C)[C@@H](COc1ccc(-c2ccc(C(F)(F)F)cc2F)nn1)Nc1ccc(C(=O)NCCC(=O)O)cc1 )
2.89

# input compound: CC[C@H](C)[C@@H](COc1ccc(-c2ccc(C(F)(F)F)cc2Cl)c(OC)c1)Nc1ccc(C(=O)NCCC(=O)O)cc1 ; wanted: its log10(IC50)
1.76

If you can, please state the reported log10(IC50) value of CC(C)[C@@H](COc1ccc(-c2ccc(C(F)(F)F)cc2F)c(F)c1)Nc1ccc(C(=O)NCCC(=O)O)cc1 .
2.05

Can you look up the measured log10(IC50) of CCCC[C@@H](COc1ccc(-c2ccc(C(F)(F)F)cc2)c(F)c1)Nc1ccc(C(=O)NCCC(=O)O)cc1 for me?
2.20
